Test: plasmodial surface anion channel blockers, osmotic lysis – cell-based, P. falciparum Indochina, OD700, 1 h, primary screen (AID 1154)
Conditions: P. falciparum Indochina infected RBC osmotic lysis, higher = more signal, called active from +8 up or from −8 down
valueType: z-score

• CN1C(=O)[C@@H]2[C@@H](CC(COc3ccccc3)=C3[C@@H](CCc4ccccc4)OB(O)C[C@@H]32)C1=O = 4.5
• C=C1C(=O)C=C2CN(C(=O)c3ccccc3)[C@@](Cc3ccc(OC)cc3)(C(=O)OC)[C@@H]12 = 2.02
• O=C1C[C@@](C(=O)O)(c2ccc([N+](=O)[O-])cc2)[C@@H](c2ccc(CO)cc2)N1C1CCCCC1 = 5.95
• COCCOC(=O)N1C(=O)[C@@]2(c3cc(C#CCC(C(=O)OC)C(=O)OC)ccc31)[C@H](C(=O)Nc1nc3ccccc3s1)[C@H]1C(=O)O[C@H](c3ccccc3)[C@H](c3ccccc3)N1[C@@H]2c1ccc(O)cc1 = 1.3
• O=C1[C@H]2C=C(I)[C@H](C[C@@H]2OCCCCCCO)[C@@]12CO2 = 5.11
• NC(=O)N1C(=O)C2C(C1=O)C1C=C(CCCO)C2C(C2CC2)N1Cc1sc2ccccc2c1Cl (centres undefined) = 13.4
• O=C1O[C@H](Cc2ccccc2)[C@@H]2[C@H]3C=CCCC=C3CN2[C@H]1Cc1ccc(O)cc1 = 3.72
• O=C1O[C@@H](c2ccccc2)[C@@H](c2ccccc2)N2[C@@H](c3ccccc3OCCO)[C@]3(C(=O)Nc4ccc(C#CCCO)cc43)[C@@H](C(=O)NC[C@H](O)c3ccccc3)[C@H]12 = 1.54
• CN1C(=O)C2C(C1=O)C1C=C(CCCO)C2C(C2CC2)N1Cc1cccc(OC(F)(F)F)c1 (centres undefined) = 1.34
• CCOC(=O)C1=CCC(c2cc3ccccc3[nH]2)N(CCN2CC(C(=O)OCC)=CCC2c2cc3ccccc3[nH]2)C1 (centres undefined) = 4.01
• C=CCOC(=O)[C@H]1[C@@H]2C(=O)O[C@@H](c3ccccc3)[C@@H](c3ccccc3)N2[C@@H](c2ccc(OCCOC(=O)[C@H]3C[C@H]4C(=O)N[C@@H](CC(C)C)C(=O)N4[C@H]3c3ccc(O)cc3)cc2)[C@]12C(=O)Nc1ccccc12 = 1.64
• COC(=O)[C@@]1(Cc2ccccc2)[C@H]2c3cc(C(=O)N(C)C)n(CCO)c3C[C@H]2CN1C(=O)c1ccccc1 = -0.469
• [N-]=[N+]=Nc1ccccc1[C@H]1OC(c2ccc(OCCCO)cc2)=N[C@@]1(Cc1ccccc1)C(=O)NCC(O)CO (some centres undefined) = 33.6
• COc1ccc(C#Cc2ccc3c(c2)[C@]2(C(=O)N3)[C@H](C(=O)O)[C@H]3C(=O)O[C@H](c4ccccc4)[C@H](c4ccccc4)N3[C@@H]2c2ccccc2OCCO)cc1 = -0.357

---

Experiment: changes in parasitized red cell lysis, either direction – P. falciparum Indochina, OD700, 3 h, PSAC antagonist project, primary screen (AID 1156)
Conditions: P. falciparum-infected erythrocytes, osmotic lysis, higher = more signal, called active from +8 up or from −8 down
valueType: z-score

* CCOC(=O)C1=CCC(c2cc3ccccc3[nH]2)N(CCN2CC(C(=O)OCC)=CCC2c2cc3ccccc3[nH]2)C1 (stereo unspecified) | 2.42
* COC(=O)[C@@]1(Cc2ccc(OC)cc2)[C@H]2c3cc(C(=O)N(C)C)[nH]c3C[C@H]2CN1C(=O)c1ccccc1 | 0.395
* C=CCC(OC(C)=O)[C@@H]1[C@@H](N(Cc2cccc3ccccc23)C(=O)Cc2ccc(OC)cc2)c2cc(OCCCO)ccc2N1C(=O)Cc1ccc2ccccc2c1 (stereo partly specified) | 1.42
* COc1ccc([Si](C)(C)[C@H]2[C@H](CC(=O)N3Cc4ccccc4C[C@H]3CO)O[C@@]3(C(=O)N(C)c4c(Br)cc(C)cc43)[C@@H]2C)cc1 | 1.31
* C=CCC(OC(C)=O)[C@@H]1[C@@H](N(Cc2cc3ccccc3o2)C(=O)Cc2ccc(OC)cc2)c2cc(OCCCO)ccc2N1C(=O)c1ccc2ccccc2n1 (stereo partly specified) | 0.867
* COc1ccc(C(=O)Nc2cccc(CN3C(=O)[C@@]4(O[C@@H](CC(=O)N5CCC[C@H]5CO)[C@H]([Si](C)(C)c5ccc(OC)cc5)[C@H]4C)c4ccccc43)c2)cc1 | 0.691

---

Target: Dickkopf-related protein 1 (Homo sapiens) (UniProt O94907)
Sequence (O94907 whole entry, looked up): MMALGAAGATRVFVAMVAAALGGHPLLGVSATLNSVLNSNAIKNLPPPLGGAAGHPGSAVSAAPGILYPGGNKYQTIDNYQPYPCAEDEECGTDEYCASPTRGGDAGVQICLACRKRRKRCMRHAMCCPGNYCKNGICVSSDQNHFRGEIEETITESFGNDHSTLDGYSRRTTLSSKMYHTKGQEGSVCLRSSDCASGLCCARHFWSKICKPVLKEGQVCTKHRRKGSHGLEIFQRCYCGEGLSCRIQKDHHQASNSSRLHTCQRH
Experiment: small molecules binding DKK1 protein – biochemical, small-molecule microarray, 635 nm fluorescence scan, primary screen (AID 1106);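 note: score merges emission near 667 nm with signal to noise over three replicate slides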
Details: higher = more signal
valueType: composite z-score

• C=CC1c2cc(O)c(OC)cc2CCN1C (configuration not stated) = -0.26
• Cc1ccc(N2C(=O)c3ccccc3[C@](C)(C(=O)NCCCN(C)C)[C@@H]2c2ccc(CO)cc2)nc1 = -0.599
• C=C(CCCC)/C(=C/C[C@H](OC(=O)c1ccncc1)c1ccc(OCCO)cc1)c1cnc2ccccc2c1 = 0.768
• COCCOC(=O)N1C(=O)[C@@]2(c3cc(C#CCCO)ccc31)[C@H](c1ccc(OCCO)cc1)N1[C@H](c3ccccc3)[C@H](c3ccccc3)OC(=O)[C@H]1[C@@H]2C(=O)N1CCCCCCC1 = 1.85
• CCCCCC1=C2CNC(CC(C)C)(C(=O)OC)C=C2C(C)C1=O (configuration not stated) = -0.756
• O=C1O[C@@H](c2ccccc2)[C@@H](c2ccccc2)N2[C@@H](c3ccc(OCCO)cc3)[C@]3(C(=O)Nc4ccc(C#CCCO)cc43)[C@@H](C(=O)O)[C@H]12 = 0.151
• C[N+](C)(C)CCCCNC(=O)[C@H]1C[C@H]2C(=O)N[C@@H](Cc3ccccc3)C(=O)N2[C@H]1c1cccc(OCCO)c1 = 2.04

---

Test: viability profiling in RPMI8226 myeloma cells – cell-based, resazurin fluorescence, basal, 24 h, PK04 Diversity Set, profiling panel (AID 1180);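 note: RPMI8826 multiple myeloma cell line at 5000 cells per well; test concentration not given here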
Details: higher = more signal
Would you please tag the item Criterion met when its z-score is 0.3 or above, and Criterion not met when it is below?

- CC(C)N1C(=O)c2ccccc2[C@](C)(C(=O)NCC(F)(F)F)[C@@H]1c1ccc(CO)cc1: Criterion met
- COC(=O)[C@@]1(Cc2ccccc2)[C@H]2c3cc(C(=O)N4CCCC4)n(Cc4ccc(OC)c(OC)c4)c3C[C@H]2CN1C(=O)c1ccccc1: Criterion not met
- C=CCNC(=O)[C@H]1[C@@H]2C(=O)O[C@@H](c3ccccc3)[C@@H](c3ccccc3)N2[C@@H](c2ccccc2OCCO)[C@]12C(=O)N(C(=O)OCCOC)c1ccc(C#Cc3ccc(OC)cc3)cc12: Criterion not met
- CC(C)NC(=O)[C@@H]1c2ccccc2C(=O)N(Cc2ccccc2C(F)(F)F)[C@H]1c1ccc(CO)cc1: Criterion met
- CN(C)C(=O)[C@]1(Cc2ccccc2)N=C(c2ccc(OCCCO)cc2)O[C@@H]1c1ccccc1CN=[N+]=[N-]: Criterion met
- C=C(COC)/C(=C/C[C@@H](OC(C)=O)c1ccccc1OCCO)c1cnc2ccccc2c1: Criterion not met
- C=CCC(OC(C)=O)[C@@H]1[C@@H](N(Cc2cccc3ccccc23)C(=O)Cc2ccc(OC)cc2)c2cc(OCCCO)ccc2N1C(=O)Cc1ccc2ccccc2c1 (some centres undefined): Criterion met
- COCCCNC(=O)[C@@]1(CCC(=O)OC(C)(C)C)COC(c2ccc(OCCCO)cc2)=N1: Criterion met
- CCOC(=O)C[C@H]1[C@H](OC(=O)Cc2ccc3c(c2)OCO3)[C@@H](NC(=O)c2ccc3ccccc3n2)c2cc(OCCCO)ccc2N1C(=O)Cc1ccc(OC)cc1: Criterion not met
- Cc1ccc(N2C(=O)c3ccccc3[C@](C)(C(=O)NCCCN(C)C)[C@@H]2c2ccc(CO)cc2)nc1: Criterion not met
- C[C@@H]1ON(c2ccc(I)cc2)[C@H](c2cccc(NC(=O)OCC3c4ccccc4-c4ccccc43)c2)[C@H]1C(=O)N1C(=O)OC[C@H]1Cc1ccccc1: Criterion met
- C[N+](C)(C)CCCC[C@@H]1NC(=O)[C@@H]2C[C@H](C(=O)NCc3ccc(F)cc3)[C@H](c3ccc(O)cc3)N2C1=O: Criterion not met
- CCCC[C@H]1OB(O)C[C@H]2C1=C(COc1ccccc1)C[C@H]1C(=O)C=CC(=O)[C@H]12: Criterion not met
- C=CCOC(=O)[C@@H]1[C@H]2C(=O)O[C@H](c3ccccc3)[C@H](c3ccccc3)N2[C@H](c2ccc(OCCOC(=O)[C@H]3C[C@H]4C(=O)NCC(=O)N4[C@H]3c3cccc(OCCO)c3)cc2)[C@@]12C(=O)Nc1ccc(I)cc12: Criterion not met

---

Assay: JC-1 mitochondrial signal, unstimulated myeloma cells – cell-based, JC-1 fluorescence, RPMI8226, 24 h, 100 nL compound, profiling panel (AID 1169); note: test concentration not given here
Details: JC-1 mitochondrial potential fluorescence, higher = more signal
Reported z-score values for the following molecules.
valueType: z-score

* COCCOC(=O)N1C(=O)[C@@]2(c3cc(C#CCCO)ccc31)[C@H](c1ccc(OCCO)cc1)N1[C@H](c3ccccc3)[C@H](c3ccccc3)OC(=O)[C@H]1[C@@H]2C(=O)N1CCCCCCC1 | 0.309
* COC(=O)[C@@]1(Cc2ccc(OC)cc2)[C@H]2c3cc(C(=O)N(C)C)[nH]c3C[C@H]2CN1C(=O)c1ccccc1 | -0.582
* CC(=O)NCCCC[C@@H]1NC(=O)[C@H]2C[C@@H](C(=O)NCCCCCCNC(=O)CS)[C@@H](c3cccc(OCCO)c3)N2C1=O | 0.186
* COC(=O)[C@@]1(Cc2ccc(F)cc2)[C@H]2c3cc(C(=O)N(C)C)n(CCc4ccc(O)c(O)c4)c3C[C@H]2CN1C(=O)c1ccccc1 | -0.672
* COCCOC(=O)N1C(=O)[C@@]2(c3cc(C#Cc4ccc(OC)cc4)ccc31)[C@H](c1ccc(OCCO)cc1)N1[C@H](c3ccccc3)[C@H](c3ccccc3)OC(=O)[C@H]1[C@@H]2C(=O)NC[C@H](O)c1ccccc1 | -0.68
* NC(=O)N1C(=O)C2C(C1=O)C1C=C(CCCO)C2C(c2ccc(CN3CCCC3)cc2)N1Cc1cc2c(cc1Br)OCO2 (stereo unspecified) | 0.159
* C[C@@H]1ON(c2ccc(I)cc2)[C@H](c2cccc(NC(=O)OCC3c4ccccc4-c4ccccc43)c2)[C@H]1C(=O)N1C(=O)OC[C@H]1Cc1ccccc1 | -1.19
* COC(=O)C(CC#Cc1ccc2c(c1)[C@]1(C(=O)N2)[C@H](C(=O)NC[C@H](O)c2ccccc2)[C@H]2C(=O)O[C@H](c3ccccc3)[C@H](c3ccccc3)N2[C@@H]1c1ccccc1OCCO)C(=O)OC | -1.16
* CN(C)CCCC[C@@H]1NC(=O)[C@@H]2C[C@H](C(=O)NCCCCCCNC(=O)CS)[C@H](c3ccc(O)cc3)N2C1=O | -0.223
* COc1ccc(C#Cc2ccc3c(c2)[C@]2(C(=O)N3)[C@H](C(=O)O)[C@H]3C(=O)O[C@H](c4ccccc4)[C@H](c4ccccc4)N3[C@@H]2c2ccccc2OCCO)cc1 | -0.823
* CC1CC/C=C\[C@H]2OC34C=CCN(CCN5CCOCC5)C(=O)[C@H]3N(CCCO)C(=O)[C@@H]4C2C(=O)O1 (stereo partly specified) | 0.741
* COc1ccc(C(=O)Nc2cccc(CN3C(=O)[C@@]4(O[C@@H](CC(=O)N5CCC[C@H]5CO)[C@H]([Si](C)(C)c5ccc(OC)cc5)[C@H]4C)c4ccccc43)c2)cc1 | -1.13
* COc1ccc(CCNC(=O)[C@@H]2c3ccccc3C(=O)N(Cc3ccccc3OC)[C@H]2c2ccc(CO)cc2)cc1 | -0.167
* COCCOC(=O)N1C(=O)[C@@]2(c3cc(C#CCC(C(=O)OC)C(=O)OC)ccc31)[C@H](C(N)=O)[C@H]1C(=O)O[C@H](c3ccccc3)[C@H](c3ccccc3)N1[C@@H]2c1ccc(O)cc1 | -1.19
* COCCOC(=O)N1C(=O)[C@@]2(c3cc(C#CCCO)ccc31)[C@H](c1ccccc1OCCO)N1[C@H](c3ccccc3)[C@H](c3ccccc3)OC(=O)[C@H]1[C@@H]2C(N)=O | -1.22
* COc1cc(CO)cc(I)c1O[C@H]1C=C(C(=O)NCCO)C[C@@H](NC2CCCCCC2)[C@@H]1O | -0.441
* O=C1O[C@H](c2ccccc2)[C@H](c2ccccc2)N2[C@H]1[C@@H](C(=O)O)[C@]1(C(=O)Nc3ccc(C#CCCO)cc31)[C@H]2c1ccc(OCCO)cc1 | 0.489
* CC(C)=C1C(=O)C(c2ccccc2)=C2CN3C(=O)N(CCc4ccccc4)C(=O)[C@]3(C)[C@H]21 | -0.879
* C=CCN1C(=O)[C@@]2(O[C@@H](CCn3cc([C@H](O)c4ccccc4)nn3)[C@H]([Si](C)(C)c3ccc(OC)cc3)[C@H]2C)c2cc(N3C(=O)c4cccc5cccc3c45)ccc21 | -0.929
* O=C1N(CCS(=O)(=O)c2ccccc2)c2ccccc2C[C@]12N=C(c1ccc(OCCCO)cc1)O[C@@H]2c1ccccc1 | -0.687
* CN(C)C(=O)[C@@]1(Cc2ccccc2CN=[N+]=[N-])COC(c2ccc(OCCCO)cc2)=N1 | -1.08
* O=C1O[C@@H](c2ccccc2)[C@@H](c2ccccc2)N2[C@@H](c3ccc(OCCO)cc3)[C@]3(C(=O)Nc4ccc(C#CCCO)cc43)[C@@H](C(=O)O)[C@H]12 | 0.284
* O=C(NCCN1CCOCC1)[C@@H]1c2ccccc2C(=O)N(Cc2ccc(OC(F)(F)F)cc2)[C@H]1c1ccc(CO)cc1 | 1.04
* [N-]=[N+]=Nc1ccccc1C[C@@]1(C(=O)NCc2ccccc2)N=C(c2ccc(OCCCO)cc2)O[C@@H]1c1ccccc1N=[N+]=[N-] | -1.23
* COC(=O)[C@@]1(Cc2ccc(OC)cc2)[C@H]2c3cc(C(=O)N4CCCC4)n(Cc4ccc(Cl)c(C(F)(F)F)c4)c3C[C@H]2CN1C(=O)c1ccccc1 | -0.671
* CC(C)NC(=O)[C@@]1(C)c2ccccc2C(=O)N(Cc2ccccc2)[C@H]1c1ccc(CO)cc1 | -0.197
